Source: BigSolDB 2.1

Settings: in n-propanol, 295.65 K
READOUT_KIND: solubility (mole fraction)
The answer should be written as a number, with no unit following it.

Memo: `CC1=NN(c2ccc(C)cc2)C(=O)C1` , reported solubility (mole fraction): 0.0326

----------
Details: in toluene, 305.65 K
READOUT_KIND: solubility (mole fraction)
The answer should be written as a number, with no unit following it.

For record `CC1=NN(c2ccc(C)cc2)C(=O)C1` the listed solubility (mole fraction) is 0.0273

----------
Conditions: in methanol, 283.15 K
READOUT_KIND: solubility (mole fraction)
No unit in the answer, only the number.

Recorded result, `CC1=NN(c2ccc(C)cc2)C(=O)C1` , solubility (mole fraction): 0.0183

----------
Settings: in 1,4-dioxane, 310.65 K
READOUT_KIND: solubility (mole fraction)
Lab note: jot the number down without any unit.

For `CC1=NN(c2ccc(C)cc2)C(=O)C1` the compound record lists solubility (mole fraction) as 0.0791
